Reference for the values: the supplement of paper PMC6607015

System: A431
Assay Overview: whole-cell filipin (free cholesterol) integrated intensity, Z-score; higher = more cholesterol staining
Study Conditions: compound concentration in added solution (µM; 5 µl added to 20 µl cells): 10; 18 h
Structures can show the parent of a compound that is named as a salt.
Please use met whenever whole-cell filipin (z-score) is not below -0.5, and not met whenever it is.

{"Compound": "CCOc1ccccc1OC(c1ccccc1)C1CNCCO1 (stereo not drawn) [Reboxetine mesylate]", "Class Assignment": "met"}
{"Compound": "CC(CCc1ccccc1)NCC(O)c1ccc(O)c(C(N)=O)c1 (stereo not drawn) [Labetalol hydrochloride]", "Class Assignment": "met"}
{"Compound": "NC[C@@H]1O[C@@H](O[C@H]2[C@H](O)[C@@H](O[C@H]3O[C@H](CO)[C@@H](O)[C@H](N)[C@H]3O)[C@H](N)C[C@@H]2N)[C@@H](O)[C@H](O)[C@H]1O [Kanamycin A sulfate]", "Class Assignment": "not met"}
{"Compound": "CNCCCC12CCC(c3ccccc31)c1ccccc12 [Maprotiline hydrochloride]", "Class Assignment": "met"}
{"Compound": "CCC(C)n1ncn(-c2ccc(N3CCN(c4ccc(OCC5COC(Cn6cncn6)(c6ccc(Cl)cc6Cl)O5)cc4)CC3)cc2)c1=O (stereo not drawn)", "Class Assignment": "met"}
{"Compound": "CC(C(=O)O)c1cccc(C(=O)c2ccccc2)c1 (stereo not drawn)", "Class Assignment": "not met"}
{"Compound": "C=CCSCC1Nc2cc(Cl)c(S(N)(=O)=O)cc2S(=O)(=O)N1 (stereo not drawn) [Althiazide]", "Class Assignment": "not met"}
{"Compound": "Clc1ccc2nsnc2c1NC1=NCCN1 [Tizanidine HCl]", "Class Assignment": "met"}

###

Test system: A431
Assay Overview: whole-cell filipin (free cholesterol) integrated intensity, Z-score; higher = more cholesterol staining
Study Conditions: compound concentration in added solution (µM; 5 µl added to 20 µl cells): 10; 18 h
Where a name gives a salt, the structure may show the parent alone.
whole-cell filipin (z-score) overview
Recorded Metric: whole-cell filipin (z-score)

{"Compound": "CN1CCC(=C2c3ccccc3CCc3sccc32)CC1 [Pizotifen malate]", "Recorded Metric": "whole-cell filipin (z-score)", "Result": 2.58}
{"Compound": "NNCCc1ccccc1 [Phenelzine sulfate]", "Recorded Metric": "whole-cell filipin (z-score)", "Result": -0.414}
{"Compound": "CC(=O)NCCCS(=O)(=O)O [Acamprosate calcium]", "Recorded Metric": "whole-cell filipin (z-score)", "Result": -0.555}
{"Compound": "CN1CCOC(c2ccccc2)c2ccccc2C1 (centres undefined) [Nefopam hydrochloride]", "Recorded Metric": "whole-cell filipin (z-score)", "Result": -0.752}
{"Compound": "CN1CCN2c3ncccc3Cc3ccccc3C2C1 (centres undefined)", "Recorded Metric": "whole-cell filipin (z-score)", "Result": -0.206}
{"Compound": "Nc1nc2c(ncn2COC(CO)CO)c(=O)[nH]1", "Recorded Metric": "whole-cell filipin (z-score)", "Result": -0.0797}
{"Compound": "CC1(C)O[C@@H]2C[C@H]3[C@@H]4C[C@H](F)C5=CC(=O)CC[C@]5(C)[C@H]4[C@@H](O)C[C@]3(C)[C@]2(C(=O)CO)O1 [Flurandrenolide]", "Recorded Metric": "whole-cell filipin (z-score)", "Result": -0.173}
{"Compound": "COc1cc(NS(=O)(=O)c2ccc(N)cc2)ncn1", "Recorded Metric": "whole-cell filipin (z-score)", "Result": -0.452}
{"Compound": "Cn1c(=O)c2nc[nH]c2n(C)c1=O [Theophylline monohydrate]", "Recorded Metric": "whole-cell filipin (z-score)", "Result": -0.516}
